Assay: Cytotoxicity against human primary hepatocytes assessed as depletion of ATP content incubated for 48 to 72 hrs by CellTiter-Glo luminescent assay
Format: toxicity, cell-based, Hepatocyte
assay metric: IC50 (µM)
Answers are plain numbers, in µM.

[in] Data request, read-out IC50, for `O=C(N[C@@H](Cc1coc2ccccc12)B(O)O)[C@@H]1C[C@H]2CC[C@@H]1O2`
[out] 91

###

Species: Homo sapiens
Assay: Selectivity ratio of IC50 for inhibition of human 20S proteasome beta5 subunit to IC50 for inhibition of human 20S immunoproteasome beta-5i subunit
Labelling field: enter 1 if recorded Ratio IC50 is less than 200. Enter -1 if it equals or exceeds that cut-off.

>>> qualitative_label("N#Cc1ccccc1CC(=O)N[C@@H](C[C@@H]1COc2ccccc21)B(O)O")
-1
>>> qualitative_label("CCc1cccc(C[C@H](NC(=O)[C@H](Cc2ccccc2)NC(=O)c2cnccn2)B(O)O)c1")
1
>>> qualitative_label("O=C(Cc1ccccc1)N[C@@H](Cc1ccccc1)B(O)O")
1
>>> qualitative_label("O=C(N[C@@H](Cc1coc2ccccc12)B(O)O)[C@@H]1C[C@@H]2CC[C@H]1O2")
1
>>> qualitative_label("O=C(Cc1ccccc1)N[C@@H](Cc1c(Cl)oc2ccccc12)B(O)O")
1
>>> qualitative_label("O=C(N[C@@H](Cc1coc2ccccc12)B(O)O)[C@H]1C[C@H]2CC[C@@H]1O2")
-1
>>> qualitative_label("O=C(N[C@@H](Cc1coc2ccccc12)B(O)O)[C@H]1CCCO1")
1
>>> qualitative_label("N#Cc1ccccc1CC(=O)N[C@@H](Cc1coc2ccccc12)B(O)O")
-1

Please find the next compound below.
[in] Regarding `O=C(Cc1ccccc1)N[C@@H](Cc1cc2ccccc2o1)B(O)O` , kindly confirm whether its Ratio IC50 is beneath 200.
[out] 1

###

Assay: Intrinsic clearance in mouse liver microsomes measured per mg protein
Type: ADME, Microsome
Conditions: read-out: CLH
assay metric: microsomal CLint (µL/min/mg)
One number for each entry, in µL/min/mg.

>>> observed_measurement("O=C(N[C@@H](Cc1coc2ccccc12)B(O)O)[C@H]1CCOC1")
16
>>> observed_measurement("O=C(N[C@@H](Cc1coc2ccccc12)B(O)O)[C@H]1CCCO1")
48
>>> observed_measurement("N#Cc1ccccc1CC(=O)N[C@@H](C[C@@H]1COc2ccccc21)B(O)O")
37

List the reported microsomal CLint of each compound below.
1. O=C(N[C@@H](Cc1coc2ccccc12)B(O)O)[C@@H]1CCCO1
2. O=C(N[C@@H](Cc1coc2ccccc12)B(O)O)[C@H]1C[C@@H]2CC[C@H]1O2
3. O=C(N[C@@H](Cc1coc2ccccc12)B(O)O)[C@@H]1C[C@H]2CC[C@@H]1O2
4. O=C(N[C@@H](Cc1coc2ccccc12)B(O)O)[C@@H]1CCOC1

[out]
[34, 16, 14, 19]

###

System: 20S immunoproteasome beta-5i subunit
Experiment: Selectivity ratio of IC50 for cytotoxicity against human HepG2 cells to IC50 for inhibition of 20S immunoproteasome beta-5i subunit in human PBMC
Type: toxicity, cell-based
Settings: read-out: Ratio IC50
assay metric: selectivity ratio
Give bare numbers.

[in] Data request, read-out selectivity ratio, for `O=C(N[C@@H](Cc1coc2ccccc12)B(O)O)[C@@H]1C[C@H]2CC[C@@H]1O2`
[out] 10000

The reported numbers originate from ChEMBL document CHEMBL5149996.
